Listing of recorded Trimeric HA Binding RLU by entry.
target-desc: recombinant soluble homotrimeric HA of A/Japan/305/57 (H2N2) (Influenza A virus A/Japan/305/1957 (H2N2))
protocol-text: HA microarray, BCC supernatant
measurement-parameters: remark: other sources report otherwise
Return type: number; implicit unit RLU.

Look over these answered cases.
INSERT INTO measurements (binder, uom, test_result) VALUES
  ('TCN-522 (3212_I12) (antibody, V domains shown) VH: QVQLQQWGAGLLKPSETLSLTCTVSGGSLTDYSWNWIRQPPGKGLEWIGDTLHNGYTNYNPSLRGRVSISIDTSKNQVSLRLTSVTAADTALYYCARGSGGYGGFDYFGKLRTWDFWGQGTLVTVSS VL: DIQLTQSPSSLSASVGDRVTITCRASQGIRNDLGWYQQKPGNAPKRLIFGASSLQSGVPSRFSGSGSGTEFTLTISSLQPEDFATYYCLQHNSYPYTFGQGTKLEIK', 'RLU', 989),
  ('TCN-528 (5087_P17) (antibody, V domains shown) VH: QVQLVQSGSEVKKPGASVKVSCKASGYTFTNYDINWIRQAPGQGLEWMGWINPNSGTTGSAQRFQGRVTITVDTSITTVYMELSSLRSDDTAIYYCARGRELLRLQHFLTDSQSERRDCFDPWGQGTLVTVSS VL: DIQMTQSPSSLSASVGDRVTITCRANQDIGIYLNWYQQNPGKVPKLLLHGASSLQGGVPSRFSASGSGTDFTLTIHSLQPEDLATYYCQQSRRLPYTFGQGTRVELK', 'RLU', 46400);

# evaluate next
// Trimeric HA Binding RLU lookup, binder = TCN-551 (5243_D01) (antibody, V domains shown) VH: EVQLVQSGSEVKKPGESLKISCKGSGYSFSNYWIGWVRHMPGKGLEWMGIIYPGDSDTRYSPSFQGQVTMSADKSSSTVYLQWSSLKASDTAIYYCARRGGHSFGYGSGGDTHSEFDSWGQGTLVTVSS VL: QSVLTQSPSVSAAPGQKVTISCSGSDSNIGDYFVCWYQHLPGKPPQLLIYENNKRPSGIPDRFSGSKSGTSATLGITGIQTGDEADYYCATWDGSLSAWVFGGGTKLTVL , result: 22600
